# method_summary: NCI Yeast Anticancer Drug Screen. Data for the bub3 strain (AID 167)
# condition_summary: S. cerevisiae bub3 mutant strain, at 100.0 µM
This is part of a sample that, as a whole, favours compounds with a hit. Of some 79,000 tested, about 15% had one in any assay. Calls of active or inactive are those of the source. No stated cut-off is given here; in the data, active means growth inhibition above about 70%; inactive means the rest.
Return exactly one item of active, inactive

1. O=C1NC(=O)C2C3C=CC(C3)C12 (configuration not stated) ... inactive
2. O=C1OC(CCl)CN1/N=C/c1ccc([N+](=O)[O-])o1 (configuration not stated) ... inactive
3. Cc1ccc(NN(NC(=O)OC(C)C)C(=O)OC(C)C)cc1 ... inactive
4. COc1cc(C2C3=C(COC3=O)Oc3cc4c(cc32)OCO4)ccc1O (configuration not stated) ... inactive
5. COC(=O)c1ccc(NCC2=CC(=O)C=CC2=O)cc1O ... active
6. CCCCCCCCCCCC1=C(O)C(=O)C=C(O)C1=O ... active
7. CCC(=O)c1cccc2ccccc12 ... inactive
8. COc1ccc2c(c1)C(=O)c1ccccc1C2 ... active

Name the outcome recorded for "COc1cccc2nc3ccccc3nc12" in the assay.
active

Called result for "Nc1ccc2c(c1)C(=O)c1cccc(N)c1C2=O"
active

# lookup: test call for CCc1ncnc2cc(OCC3CO3)c(OC)cc12 (configuration not stated)
inactive

Each molecule tested received a call. Report the one for "CN(Cc1cnc2nc(N)nc(N)c2n1)c1ccc(C(=O)N[C@@H](CCC(=O)O)C(=O)O)cc1" .
inactive

* * *

# method_summary: NCI Yeast Anticancer Drug Screen. Data for the mec2-1 strain (AID 157)
# condition_summary: S. cerevisiae mec2-1 strain, at 3.7 µM, stronger effect = higher value
The panel holds about 79,000 compounds, 15% with a hit somewhere; the sample as a whole holds those more often. Calls of active or inactive are those of the source. No stated cut-off is given here; in the data, active means growth inhibition above about 70%; inactive means the rest.
experimental_endpoint: growth inhibition

1) CCOC(=O)C1=C(C(=O)c2ccccc2)C(c2ccccc2[N+](=O)[O-])C(C(=O)c2ccccc2)=C(C(=O)OCC)N1 ... -3% (inactive)

Would you mind telling me what growth inhibition value was observed for "O=CC=C(c1ccccc1)c1ccccc1" ?
0% (inactive)

* * *

# method_summary: NCI Yeast Anticancer Drug Screen. Data for the wt2 strain (AID 169);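 further: 0% = growth of vehicle-treated yeast cultures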
# condition_summary: S. cerevisiae wt2 strain growth inhibition; at 3.7 µM; stronger effect = higher value
The panel holds about 79,000 compounds, 15% with a hit somewhere; the sample as a whole holds those more often.
Below, each of the molecules is paired with its reported growth inhibition value.
# output: bare number, implied unit %

1. N#CC(C(=O)Nc1ccccc1)C1=C(Cl)C(=O)c2ccccc2C1=O (stereo not drawn) ... 26

Sample "Cc1c(Cl)ccc2c1S(=O)(=O)c1cccc(Cl)c1-2" — what was its growth inhibition?
-9

growth inhibition lookup needed for "N#CSc1ccc(S(N)(=O)=O)cc1" , thanks.
-45

* * *

# method_summary: NCI Yeast Anticancer Drug Screen. Data for the rad18 strain (AID 177)
# condition_summary: S. cerevisiae rad18 mutant growth inhibition; at 1.2 µM
About 79,000 compounds went through this panel and 15% of them were active in at least one assay; those are over-represented in the sample as a whole. Active and inactive are the calls of the source. Cut-off read from the data, not from the text of the source: active = growth inhibition above about 70%; inactive = the rest.
Your reply should match one of these outcome classes. 1 = active, -1 = inactive

Name the outcome recorded for "CN(C)CCOc1ccc2c(c1)C/C(=C/c1ncc([N+](=O)[O-])n1C)C2=O" in the assay.
1

Kindly provide the recorded test outcome for the following compound: "O=C(OCC=C1CCCC1)c1cc([N+](=O)[O-])cc([N+](=O)[O-])c1"
-1

Could you please tell me the result logged for "CC(C)c1cc(C(C)C)c(O)c(C([O-])[O-])c1.CC(C)c1cc(C(C)C)c(O)c(C([O-])[O-])c1.CC(C)c1cc(C(C)C)c(O)c(C([OH2+])[OH2+])c1.CC(C)c1cc(C(C)C)c(O)c(C([OH2+])[OH2+])c1.[Cu+2].[Cu+2].[OH3+].[OH3+]" in this assay?
-1

I would be grateful if you could indicate the recorded call for "COC(=O)c1ccc(NCC2=CC(=O)C=CC2=O)cc1O" .
-1

Hey, what did the test say about "O=C(N=Nc1cc(Cl)ccc1Cl)NNc1cc(Cl)ccc1Cl" ?
-1
